meta.source: ChEMBL document CHEMBL1126724

target_or_test_system: Angiotensin II receptor (AT-1) type-1 (Rattus norvegicus, UniProt P29089+P25095)
procedure_summary: In vitro binding affinity to the angiotensin II receptor, type 1 in rat liver
Where a SMILES comes first, the peptide text is derived from it. Bridges are numbered along the chain shown (N, C = ends). [ ]: non-standard residue; d: D form. Sar = CNCC(=O)O
measurement_name: IC50 (nM)

[P] CNCC(=O)N[C@@H](CCCN=C(N)N)C(=O)N[C@H]1CCC(=O)NCCCC[C@@H](C(=O)N[C@@H](Cc2c[nH]cn2)C(=O)N2CCC[C@H]2C(=O)N[C@@H](Cc2ccccc2)C(=O)O)NC(=O)[C@H](Cc2ccc(O)cc2)NC1=O (H-[Sar]REYKHPF-OH; lactam 3-5)
[Q] CNCC(=O)N[C@@H](CCCN=C(N)N)C(=O)N[C@H](C(=O)N[C@@H](Cc1ccc(O)cc1)C(=O)N[C@H]1CSSC[C@@H](C(=O)O)NC(=O)[C@@H]2CCCN2C(=O)[C@H](Cc2c[nH]cn2)NC1=O)C(C)C (H-[Sar]RVYCHPC-OH; disulfide 5-8)
Exercise: Lower value for measured IC50? Options: P , Q Selection: enter the item's label.
Solution: P
(P: 89 nM, Q: 1200 nM)

----------
# Lookup of reported IC50 keyed by entry
target_or_test_system: Angiotensin II receptor (AT-1) type-1 (Rattus norvegicus, UniProt P29089+P25095)
Sequence (P29089 whole entry): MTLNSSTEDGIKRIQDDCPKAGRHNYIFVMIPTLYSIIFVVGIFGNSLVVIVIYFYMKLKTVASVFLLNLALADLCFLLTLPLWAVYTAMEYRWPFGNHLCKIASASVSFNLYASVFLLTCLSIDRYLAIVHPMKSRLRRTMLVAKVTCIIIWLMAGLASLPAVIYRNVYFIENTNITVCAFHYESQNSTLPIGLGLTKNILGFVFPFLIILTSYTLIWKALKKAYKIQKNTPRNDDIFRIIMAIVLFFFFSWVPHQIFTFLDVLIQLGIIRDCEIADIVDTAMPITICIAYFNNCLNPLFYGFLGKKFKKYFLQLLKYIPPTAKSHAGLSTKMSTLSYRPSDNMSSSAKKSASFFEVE
Sequence (P25095 whole entry): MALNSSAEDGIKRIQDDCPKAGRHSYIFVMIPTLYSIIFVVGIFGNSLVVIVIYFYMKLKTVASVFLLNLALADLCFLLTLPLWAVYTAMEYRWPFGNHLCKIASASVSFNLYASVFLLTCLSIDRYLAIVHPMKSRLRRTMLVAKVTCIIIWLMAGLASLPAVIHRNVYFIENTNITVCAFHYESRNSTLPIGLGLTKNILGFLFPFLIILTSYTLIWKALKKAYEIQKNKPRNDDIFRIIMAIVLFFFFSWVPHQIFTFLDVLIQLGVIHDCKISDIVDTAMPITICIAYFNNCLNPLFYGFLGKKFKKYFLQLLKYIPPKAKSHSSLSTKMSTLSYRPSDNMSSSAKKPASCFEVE
procedure_summary: In vitro binding affinity to the angiotensin II receptor, type 1 in rat liver
*1 amine or outer side, *2 acyl side, *3 side chain or, on linkers, in order; H or OH if unused. Where a SMILES comes first, the peptide text is derived from it. Bridges are numbered along the chain shown (N, C = ends). Roman numbers before positions name the chains, in order. [ ]: non-standard residue; d: D form. Pro(4R-SH) = O=C([C@@H]1C[C@@H](S[*:3])CN1[*:1])[*:2]; Pro(4S-SH) = O=C([C@@H]1C[C@H](S[*:3])CN1[*:1])[*:2]; Sar = CNCC(=O)O
Please state the figure in nM; there is no need to write the unit.

Some solved cases for reference:
molecule	number
CNCC(=O)N[C@@H](CCCN=C(N)N)C(=O)N[C@H]1CSSC[C@@H](C(=O)N[C@@H](Cc2c[nH]cn2)C(=O)N2CCC[C@H]2C(=O)N[C@@H](Cc2ccccc2)C(=O)O)NC(=O)[C@H](Cc2ccc(O)cc2)NC(=O)[C@@H](NC(=O)[C@H](CCCN=C(N)N)NC(=O)CNC)CSSC[C@@H](C(=O)N[C@@H](Cc2c[nH]cn2)C(=O)N2CCC[C@H]2C(=O)N[C@@H](Cc2ccccc2)C(=O)O)NC(=O)[C@H](Cc2ccc(O)cc2)NC1=O (I: H-[Sar]RCYCHPF-OH / II: H-[Sar]RCYCHPF-OH; disulfide I:3-II:5, I:5-II:3)	28
CNCC(=O)N[C@@H](CCCN=C(N)N)C(=O)N1C[C@@H]2C[C@H]1C(=O)N[C@@H](Cc1ccc(O)cc1)C(=O)N[C@H](C(=O)N[C@@H](Cc1c[nH]cn1)C(=O)N1CCC[C@H]1C(=O)N[C@@H](Cc1ccccc1)C(=O)O)CSS2 (H-[Sar]R[Pro(4S-SH)]YCHPF-OH; disulfide 3-5)	4700

# IC50 (molecule: CNCC(=O)N[C@@H](CCCN=C(N)N)C(=O)N[C@H]1CSS[C@H]2C[C@@H](C(=O)N[C@@H](Cc3c[nH]cn3)C(=O)N3CCC[C@H]3C(=O)N[C@@H](Cc3ccccc3)C(=O)O)N(C2)C(=O)[C@H](Cc2ccc(O)cc2)NC1=O (H-[Sar]RCY[Pro(4S-SH)]HPF-OH; disulfide 3-5) ) is 62

# IC50 (molecule: CNCC(=O)N[C@@H](CCCN=C(N)N)C(=O)N[C@H]1CSS[C@@H]2C[C@@H](C(=O)N[C@@H](Cc3c[nH]cn3)C(=O)N3CCC[C@H]3C(=O)N[C@@H](Cc3ccccc3)C(=O)O)N(C2)C(=O)[C@H](Cc2ccc(O)cc2)NC1=O (H-[Sar]RCY[Pro(4R-SH)]HPF-OH; disulfide 3-5) ) is 18
